B1: library; numbered along this chain (parent)
chain: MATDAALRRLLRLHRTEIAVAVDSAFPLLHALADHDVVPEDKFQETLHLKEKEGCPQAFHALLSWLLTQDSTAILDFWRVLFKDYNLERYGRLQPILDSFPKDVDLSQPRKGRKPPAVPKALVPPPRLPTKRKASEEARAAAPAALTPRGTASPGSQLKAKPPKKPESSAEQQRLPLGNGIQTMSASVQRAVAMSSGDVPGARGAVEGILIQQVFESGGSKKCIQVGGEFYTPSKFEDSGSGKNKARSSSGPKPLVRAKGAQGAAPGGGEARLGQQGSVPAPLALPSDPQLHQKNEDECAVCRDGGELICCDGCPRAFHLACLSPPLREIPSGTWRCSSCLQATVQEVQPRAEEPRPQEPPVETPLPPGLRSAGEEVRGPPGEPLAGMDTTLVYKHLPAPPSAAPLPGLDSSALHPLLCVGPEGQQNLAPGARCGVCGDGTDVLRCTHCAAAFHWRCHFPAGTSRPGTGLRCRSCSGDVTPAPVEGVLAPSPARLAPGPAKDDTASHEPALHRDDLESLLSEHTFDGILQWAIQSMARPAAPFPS

variants of: B1; assay: AIRE transcriptional activation functional score (insulin promoter-GFP; nonsense median 0, synonymous median 1) (normalised score); higher = higher AIRE activity (more reporter activation); conditions: with insulin promoter-GFP reporter in HEK293
quantity: AIRE transcriptional activation functional score
Could you respond with only the numeric value?

Before answering, review these 5 worked examples.
{"columns": ["mutation-label", "numeric-result"],
 "data": [
  ["Q534L", 0.314],
  ["D297I", 0.487],
  ["Q425N", 0.869],
  ["K221L", 0.328],
  ["E53R", -0.133]
]}

What value of measured AIRE transcriptional activation functional score is listed for `T151H` ?
1.34

How about `L97V` ?
0.394

Similarly, `E517L` ?
0.0571

Likewise for `A21D` ?
-0.73

Subsequent entry: `V38G`
-0.618

Please do the same for `C457S` as well.
-0.11

Can you handle `P166L` next?
0.95

The reported measurements were obtained from the supplement of paper PMC12667976.
